The measurements presented in this section are drawn from paper PMC12040169.

# test_method_notes: in vitro
# experimental_setup: human, hela cells, % viability
Criterion: viability at 28.5 h, 10 µM strictly less than 90%. Met: Y. Not met: N.

I wonder whether CC(C(=O)Nc1cncc(OC2CCNCC2)n1)c1ccccc1 (stereo not shown) [CBK026733T] has viability at 28.5 h, 10 µM below 90%. Can you tell?
N

Do the same for CCOc1ccsc1C(=O)NC1Cc2ccccc2C1 [CBK200359] please
Y

How about this compound: CC(C)c1cc(C(=O)NCCN2CCc3ccccc32)n(C)n1 [CBK282685]
Y

Next entry: c1cncc(-c2cn3ccnc3c(NCC3CC3)n2)c1 [CBK036609]
Y

What do you get for COc1ccc(C(=O)CSc2nnc(-c3ccc4c(c3)OCO4)n2-c2ccccc2)cc1 [CBK263592] ?
Y
